All figures here come from ChEMBL document CHEMBL1140927.

For each record, write down the corresponding IC50.
# target: Cytochrome P450 3A4 (Homo sapiens)
# Sequence (P08684 whole entry): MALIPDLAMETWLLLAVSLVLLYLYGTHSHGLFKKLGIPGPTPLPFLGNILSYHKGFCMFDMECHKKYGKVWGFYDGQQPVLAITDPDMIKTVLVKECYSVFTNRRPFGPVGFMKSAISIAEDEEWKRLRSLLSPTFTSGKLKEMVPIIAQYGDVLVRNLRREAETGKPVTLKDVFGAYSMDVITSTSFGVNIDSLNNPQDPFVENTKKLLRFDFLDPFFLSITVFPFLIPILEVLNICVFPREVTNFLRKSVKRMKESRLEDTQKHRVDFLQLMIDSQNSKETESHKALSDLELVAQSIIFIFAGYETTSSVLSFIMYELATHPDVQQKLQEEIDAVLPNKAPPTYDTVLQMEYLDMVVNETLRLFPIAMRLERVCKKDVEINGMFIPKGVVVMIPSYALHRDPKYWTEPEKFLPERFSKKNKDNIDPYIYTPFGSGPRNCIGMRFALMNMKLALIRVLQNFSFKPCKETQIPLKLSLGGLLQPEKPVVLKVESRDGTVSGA
# assay: Inhibition of human CYP3A4 expressed in Escherichia coli using 7BQ substrate by time dependent inhibition assay
# Type: ADME
Answers are plain numbers, in µM.

INSERT INTO measurements (smiles_representation, observed_result) VALUES
  ('C[C@H]1CN(Cc2ccc(CC(=O)N3CCC(Nc4cccc(C#N)c4)CC3)cc2)CCN1', 58),
  ('C[C@H]1CN(Cc2ccc(CCC(=O)N3CCC(Nc4cccc(F)c4)CC3)cc2)CCN1', 18);

Now for another entry.
Provide only the value of recorded IC50 for `C[C@@H]1CN(Cc2ccc(CC(=O)N3CCC(Nc4ccc(F)cc4)CC3)cc2)C[C@H](C)N1`
59

---

# target: Cytochrome P450 3A4 (Homo sapiens)
# assay: Inhibition of human CYP3A4 expressed in Escherichia coli using diethoxyfluorescein substrate by time dependent inhibition assay
# Format: ADME
pIC50: −log10 of the molar value.
Quick rule for you: pIC50 at 5 or higher means MET, lower means NOT MET.

INSERT INTO measurements (smiles_representation, class_label) VALUES
  ('C[C@@H]1CN(Cc2ccc(C(C)(C)C(=O)N3CCC(Nc4ccc(F)cc4)CC3)cc2)C[C@H](C)N1', 'MET');

Does `C[C@H]1CN(Cc2ccc(CC(=O)N3CCC(Nc4cccc(C#N)c4)CC3)cc2)CCN1` have a reported pIC50 of at least 5?
NOT MET

# check: pIC50 of `C[C@@H]1CN(Cc2ccc(CC(=O)N3CCC(Nc4ccc(F)cc4)CC3)cc2)C[C@H](C)N1` is greater than or equal to 5
NOT MET

---

Please provide measured solubility for the entries that follow.
# assay: Aqueous solubility of the compound
# Assay type: physicochemical
# experimental.parameters: aqueous medium

INSERT INTO results (smiles_representation, observed_result) VALUES
  ('C[C@@H]1CN(Cc2ccc(-c3cccnc3C(=O)N3CCC(Nc4ccc(F)cc4)CC3)cc2)C[C@H](C)N1.Cl', '≥ 1 µg/mL');

In the following, a different compound is considered.
Return the recorded solubility value; entry: `C[C@H]1CN(Cc2ccc(CC(=O)N3CCC(Nc4cccc(F)c4)CC3)cc2)CCN1.Cl`
> 1 µg/mL

---

Would you mind telling me the reported IC50 of each entry?
# target: Cytochrome P450 3A4 (Homo sapiens)
# assay: Inhibition of human CYP3A4 expressed in Escherichia coli using diethoxyfluorescein substrate measured in 0 to 5 mins by time dependent inhibition assay
# Type: ADME
One number for each entry, in µM.

Each compound below has a recorded value; state its IC50.
1. C[C@@H]1CN(Cc2ccc(-c3cccnc3C(=O)N3CCC(Nc4ccc(F)cc4)CC3)cc2)C[C@H](C)N1
2. CC[C@H]1OC(=O)[C@H](C)[C@@H](O[C@H]2C[C@@](C)(OC)[C@@H](O)[C@H](C)O2)[C@H](C)[C@@H](O[C@@H]2O[C@H](C)C[C@H](N(C)C)[C@H]2O)[C@](C)(O)C[C@@H](C)C(=O)[C@H](C)[C@@H](O)[C@]1(C)O

20
1.9

---

# assay: Oral bioavailability in Sprague-Dawley rat
# Assay type: ADME, organism-based
# experimental.parameters: in vivo
observable: bioavailability (%)
Give bare numbers, in %.

Identify measured bioavailability associated with `C[C@H]1CN(Cc2ccc(CC(=O)N3CCC(Nc4cccc(F)c4)CC3)cc2)CCN1`
48

---

# assay: Protein binding in rat plasma
# Type: ADME, cell-free
# experimental.parameters: read-out: PPB (converted)
observable: fraction unbound
Give bare numbers.

Name the recorded fraction unbound of the molecule listed here: C[C@H]1CN(Cc2ccc(CC(=O)N3CCC(Nc4cccc(F)c4)CC3)cc2)CCN1 [CAMICINAL]
0.37

---

# target: Growth hormone secretagogue receptor type 1 (Homo sapiens, UniProt Q92847)
# Sequence (Q92847 whole entry): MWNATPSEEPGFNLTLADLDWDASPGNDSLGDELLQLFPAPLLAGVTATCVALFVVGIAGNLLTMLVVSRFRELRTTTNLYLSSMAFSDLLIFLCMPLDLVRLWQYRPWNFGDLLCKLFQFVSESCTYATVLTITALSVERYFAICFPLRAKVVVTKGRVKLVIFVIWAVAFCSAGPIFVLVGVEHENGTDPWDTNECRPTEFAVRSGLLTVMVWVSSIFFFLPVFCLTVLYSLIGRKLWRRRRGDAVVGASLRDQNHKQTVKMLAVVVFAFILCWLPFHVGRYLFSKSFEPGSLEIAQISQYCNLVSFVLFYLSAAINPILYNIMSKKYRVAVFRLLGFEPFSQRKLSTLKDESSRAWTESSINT
# assay: Agonist activity at human Ghrelin receptor
observable: EC50

Fill in EC50 for record C[C@H]1CN(Cc2ccc(CC(=O)N3CCC(Nc4cccc(F)c4)CC3)cc2)CCN1 [CAMICINAL]
> 1000 nM

---

# target: Motilin receptor (Homo sapiens, UniProt O43193)
# Sequence (O43193 whole entry): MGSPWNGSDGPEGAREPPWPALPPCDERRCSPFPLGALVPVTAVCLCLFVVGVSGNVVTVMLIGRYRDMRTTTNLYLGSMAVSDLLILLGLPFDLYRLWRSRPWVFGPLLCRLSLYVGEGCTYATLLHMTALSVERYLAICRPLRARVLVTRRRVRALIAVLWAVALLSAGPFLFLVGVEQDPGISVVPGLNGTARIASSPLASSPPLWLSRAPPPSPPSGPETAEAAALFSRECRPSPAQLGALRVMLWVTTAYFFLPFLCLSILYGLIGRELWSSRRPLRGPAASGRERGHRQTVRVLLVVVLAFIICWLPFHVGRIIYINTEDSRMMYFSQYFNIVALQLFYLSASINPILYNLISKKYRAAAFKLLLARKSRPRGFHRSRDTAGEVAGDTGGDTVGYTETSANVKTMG
# assay: Agonist activity at human recombinant motilin receptor expressed in CHO cells assessed as increase in intracellular calcium by FLIPR assay
For each of the compounds below, state its pEC50.
Answers are plain numbers, as −log10 of the molar value.

Please review the following examples before continuing.
INSERT INTO measurements (compound, observable, observed_result) VALUES
  ('C[C@@H]1CN(Cc2ccc(CC(=O)N3CCC(Nc4cccc(F)c4)CC3)cc2)CCN1', 'pEC50', 7.70),
  ('C[C@H]1CN(Cc2ccc(CCC(=O)N3CCC(Nc4ccc(F)cc4)CC3)cc2)CCN1', 'pEC50', 7.20);

Now for another entry.
Please look at this compound and report its pEC50: CC(C(=O)N1CCC(Nc2ccc(F)cc2)CC1)c1ccc(CN2C[C@@H](C)N[C@@H](C)C2)cc1 (stereo partly drawn)
7.50
